The origin of these recorded values is patent US4528287A.

Assay: Urinary excretion in rats after oral dosing (bioassay with Escherichia coli NIHJ-JC-2)
Assay type: in vivo, SD strain)
Details: rat, male SD rats, 20 mg/Kg per os, fasted 24 hr, urine 0-6 hr, read-out: Drug Concentration in Urine 0-6 (hr)
recorded-endpoint: concentration at 6 h (µg/mL)
Kindly provide the numeric value in µg/mL only, without the unit symbol.

Example cases with answers are listed next.
{"molecule": "CC1CN(c2c(F)cc3c(=O)c(C(=O)O)cn(CCF)c3c2F)CCN1 (stereo not drawn)", "concentration at 6 h, µg/mL": 344}
{"molecule": "CCn1cc(C(=O)O)c(=O)c2cc(F)c(N3CCNC(C)C3)cc21 (stereo not drawn)", "concentration at 6 h, µg/mL": 514}

We now examine a further molecule.
Please list concentration at 6 h recorded for the molecule CCn1cc(C(=O)O)c(=O)c2cc(F)c(N3CCNC(C)C3)c(F)c21 (stereo not drawn)
659

---

Quick reference: MIC of the listed items.
Test system: Pseudomonas aeruginosa ATCC9027
Experiment: MIC, twofold agar dilution
Format: cell-based
Settings: Gram -, 10^6 cells/ml, 18 hrs, 37° C., read-out: Minimum inhibitory concentration (MIC)
Return type: number; implicit unit µg/mL.

Field: example entries. Status: answers known.
{"molecule": "CCn1cc(C(=O)O)c(=O)c2cc(F)c(N3CC(C)NC(C)C3)c(F)c21 (centres unmarked)", "measured": 0.2}
{"molecule": "CCn1cc(C(=O)O)c(=O)c2cc(F)c(N3CCNC(C)C3)c(F)c21 (centres unmarked)", "measured": 0.05}
{"molecule": "CCn1cc(C(=O)O)c(=O)c2cc(F)c(N3CCNCC3)cc21 [Reference Drug, norfloxacin, reference compound]", "measured": 0.05}
{"molecule": "CCn1cc(C(=O)O)c(=O)c2cc(F)c(N3CCNC(C)C3)cc21 (centres unmarked)", "measured": 0.1}

Now consider a different molecule.
Identify measured MIC associated with CC1CN(c2c(F)cc3c(=O)c(C(=O)O)cn(CCF)c3c2F)CCN1 (centres unmarked)
0.1

---

System: Escherichia coli NIHJ-JC-2
Attribute: MIC
Just the number please, in µg/mL, no unit attached.

Consider the reported MIC for these compounds:
{"compound": "CCn1cc(C(=O)O)c(=O)c2cc(F)c(N3CCNC(C)C3)c(F)c21 (centres unmarked) [Example 4]", "tgt": "Escherichia coli NIHJ-JC-2", "recorded-endpoint": "MIC", "measured": 0.05}
{"compound": "CCn1cc(C(=O)O)c(=O)c2cc(F)c(N3CC(C)NC(C)C3)c(F)c21 (centres unmarked) [Example 20]", "tgt": "Escherichia coli NIHJ-JC-2", "recorded-endpoint": "MIC", "measured": 0.39}
{"compound": "CC1CN(c2c(F)cc3c(=O)c(C(=O)O)cn(CCF)c3c2F)CCN1 (centres unmarked) [Example 16]", "tgt": "Escherichia coli NIHJ-JC-2", "recorded-endpoint": "MIC", "measured": 0.1}

Report MIC for CCn1cc(C(=O)O)c(=O)c2cc(F)c(N3CCNCC3)cc21 [Reference Drug, norfloxacin, reference compound]
0.05

For the compound CCn1cc(C(=O)O)c(=O)c2cc(F)c(N3CCNC(C)C3)cc21 (centres unmarked) [Example 1] , give its measured MIC value.
0.1

---

MIC, Staphylococcus aureus MS-353, per-entry values.
Please make sure the unit comes right after the number.

Observe how each entry below is paired with its result.
{"compound": "CCn1cc(C(=O)O)c(=O)c2cc(F)c(N3CC(C)NC(C)C3)c(F)c21 (centres unmarked) [Example 20]", "MIC": "1.56 µg/mL"}
{"compound": "CCn1cc(C(=O)O)c(=O)c2cc(F)c(N3CCNC(C)C3)c(F)c21 (centres unmarked) [Example 4]", "MIC": "0.78 µg/mL"}
{"compound": "CCn1cc(C(=O)O)c(=O)c2cc(F)c(N3CCNC(C)C3)cc21 (centres unmarked) [Example 1]", "MIC": "0.39 µg/mL"}
{"compound": "CC1CN(c2c(F)cc3c(=O)c(C(=O)O)cn(CCF)c3c2F)CCN1 (centres unmarked) [Example 16]", "MIC": "1.56 µg/mL"}

Retrieve MIC on Staphylococcus aureus MS-353; query CCn1cc(C(=O)O)c(=O)c2cc(F)c(N3CCNCC3)cc21 [Reference Drug, norfloxacin, reference compound]
6.25 µg/mL
